System: U2OS
Assay Procedure: Incucyte cell viability with U2OS; also: filed as whole numbers so only -1 and 0 and 1 occur
Type: toxicity, cell-based
Stated Conditions: human, 24 h, 10 µM, compound concentration 10 uM, replicate number 2, timepoint 24 hours
Assignment: determine reported Growth Rate for the given compounds.
In your answer, state the number alone without any accompanying words.

stdin: So what's the measured Growth Rate for this one? N#Cc1ccccc1OCC(O)CNCCNC(=O)Nc1ccccc1 (stereo not given) [ICI-89406]
stdout: 0

stdin: I would be grateful if you could share the reported Growth Rate for CC(C)NCC(O)c1ccc(N)c(C#N)c1 (stereo not given) [CIMATEROL] .
stdout: 0

stdin: Given the compound Nc1nc(NCCc2ccc(O)cc2)nc2nc(-c3ccco3)nn12 [ZM-241385] , what is its reported Growth Rate?
stdout: 1

stdin: Reported Growth Rate for CCOC(=O)c1cc(C#N)c(N2CCC(C(=O)NS(=O)(=O)Cc3ccccc3)CC2)nc1C : what is it?
stdout: 1

stdin: Record request: Growth Rate value, item COc1cc2c(Nc3ccc(NC(=O)c4ccccc4)cc3)ncnc2cc1OCCCN1CCOCC1
stdout: 1
